test-system: Doc toxin of Salmonella enterica serovar Typhimurium (DocSTm) (Salmonella enterica serovar Typhimurium)
experiment-description: SPR; DocSTm immobilised on a Series S NTA chip (150 nM, 200-400 RU); analytes in single-cycle kinetics, typically six concentrations, kinetic 1:1 fit; 22 °C; 10 mM HEPES, 500 mM NaCl, 50 μM EDTA, 0.005% TWEEN 20, pH 8.0
No end group written: not given here.
The binders listed here are annotated with their Kd.

binder: Ac-WMADEFAAIMAVHGNELRELADK [peptide 3 (Phd 52-73 D53A)]
Kd [nM]: 0.013
//
binder: Ac-WMDDEFAAIMAVHGNELREAADK [peptide 17 (Phd 52-73 L70A)]
Kd [nM]: 1.55
//
binder: Ac-WMDDEAAAIMAVHGNELRELADK [peptide 6 (Phd 52-73 F56A)]
Kd [nM]: 0.852
//
binder: Ac-WMDAEFAAIMAVHGNELRELADK [peptide 4 (Phd 52-73 D54A)]
Kd [nM]: 0.013

All figures here come from paper PMC9207808.
